// data source = paper PMC6009932

Quick reference for melting point among some compounds

Examples with answers:
compound: O=c1cc(Cn2cc(Cn3ccc4c(Cl)ncnc43)nn2)c2ccc(O)cc2o1
melting point: 202 to 204 °C
--
compound: Fc1ccc2c(ccn2Cc2cn(-c3ccc(C(F)(F)F)cc3)nn2)c1 [Compound 10c]
melting point: 151 to 154 °C
--
compound: Fc1ccccc1-n1cc(Cn2cnc3c(Cl)nccc32)nn1
melting point: 124 to 127 °C
--
compound: O=c1cc(Cn2cc(Cn3cc(Br)c4c(Cl)ncnc43)nn2)c2ccc(O)cc2o1
melting point: > 250 °C

Here is another compound to look at.
Noted for FC(F)(F)c1ccc(-n2cc(Cn3cnc4c(Cl)nccc43)nn2)cc1 : its melting point reads 151 to 154 °C
